compounds and their reported IC50
# procedure_details: Displacement of Biocillin FL from Streptococcus pneumoniae 24 PBP1B

{"columns": ["compound", "IC50 [µg/mL]"],
 "data": [
  ["CC1(C)S[C@@H]2[C@H](NC(=O)[C@H](N)c3ccc(O)cc3)C(=O)N2[C@H]1C(=O)O [AMOXICILLIN]", 1.103],
  ["CO/N=C(\\C(=O)N[C@@H]1C(=O)N2C(C(=O)O)=C(COC(N)=O)CS[C@H]12)c1ccco1 [CEFUROXIME]", 0.923],
  ["C[C@@H](O)[C@H]1C(=O)N2C(C(=O)O)=C([C@H]3CCCO3)S[C@H]12 [FAROPENEM]", 0.06],
  ["C[C@@H](O)[C@H]1C(=O)N2C(C(=O)O)=C(SCCNC=N)C[C@H]12 [IMIPENEM ANHYDROUS]", 0.71],
  ["CC1(C)S[C@@H]2[C@H](NC(=O)Cc3ccccc3)C(=O)N2[C@H]1C(=O)O [PENICILLIN G]", 0.248]
]}
